Target: h5-HT4b (Homo sapiens, UniProt Q13639)
Construct: expressed in transfected cells; host or cells: HEK 293 (clone 9), membrane preparation
Sequence (Q13639 whole entry): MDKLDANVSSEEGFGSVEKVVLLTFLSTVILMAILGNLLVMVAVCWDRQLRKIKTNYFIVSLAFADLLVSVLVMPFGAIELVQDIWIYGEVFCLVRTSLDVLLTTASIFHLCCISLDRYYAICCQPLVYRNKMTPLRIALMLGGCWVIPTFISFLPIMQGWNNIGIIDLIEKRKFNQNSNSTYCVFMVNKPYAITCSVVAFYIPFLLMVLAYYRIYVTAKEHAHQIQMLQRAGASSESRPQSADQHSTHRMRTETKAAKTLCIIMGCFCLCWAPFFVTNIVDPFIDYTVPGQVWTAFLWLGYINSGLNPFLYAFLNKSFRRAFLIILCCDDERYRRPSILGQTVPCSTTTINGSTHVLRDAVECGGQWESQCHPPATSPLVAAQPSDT
Assay: 5HT4 antagonism: [3H]GR113808 binding to membranes of h5-HT4b-HEK 293 clone 9 cells
Conditions: displacement of [3H]GR113808 0.1 nM; h5-HT4b-HEK 293 membranes; 30 min at 25° C.; read-out: pIC50 (5HT4 antagonistic data) (converted)
Description: h5-HT4b-HEK 293 clone 9 cells were cultured in 150 mm Petri dishes and washed twice with cold PBS. The cells were then scraped from the plates and suspended in 50 mM Tris-HCl buffer, pH 7.4 and harvested by centrifugation at 23,500 rpm for 10 minutes. The pellet was resuspended in 5 mM Tris-HCl, pH 7.4 and homogenized with an Ultra Turrax homogenizer. The membranes were collected by centrifugation at 30,000 rpm for 20 min, resuspended in 50 mM Tris-HCl pH 7.4 and stored at −80° C. […]
IC50 values by entry
REPORTED METRIC: IC50 (nM)

Cc1ccc(C(=O)NC[C@@H]2CCN(CCCc3nnn[nH]3)C[C@H]2O)c2c1OCCCO2    7.94
O=C(NC[C@@H]1CCN(CCCCc2nnn[nH]2)C[C@H]1O)c1cc(Cl)cc2c1OCCCO2    7.24
Cc1cc2c(c(C(=O)NC[C@@H]3CCN(CCCc4cc(O)no4)C[C@H]3O)c1)OCCO2    8.71
